# target: U1A E19A:F56A (UniProt P09012 10-89, E19A;F56A)
# Sequence (P09012 10-89 E19A/F56A): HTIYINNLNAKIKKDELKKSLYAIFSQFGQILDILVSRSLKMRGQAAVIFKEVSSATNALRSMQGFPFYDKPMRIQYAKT
# procedure.summary: fluorescence polarization
reported.endpoint: pKd
Recall that pKd is obtained by taking minus log10 of the concentration measured in molar.

The binder listed as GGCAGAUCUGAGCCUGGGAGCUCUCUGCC (structured_RNA) [TAR RNA] shows pKd equal to 4.53
